Record form. Attribute: Cyno T-cell Binding 0.2 uM (MFI). Fill in for each entry.
Molecular target: T1, cynomolgus monkey CD8 alpha on primary cynomolgus CD8+ T cells (cynomolgus monkey, UniProt P01732 23-235 (human entry))
T1 construct: also called Cyno CD8alpha; cyno CD8A
T1 sequence (P01732 other isoform, or with tags, fused parts or gaps limits assumed): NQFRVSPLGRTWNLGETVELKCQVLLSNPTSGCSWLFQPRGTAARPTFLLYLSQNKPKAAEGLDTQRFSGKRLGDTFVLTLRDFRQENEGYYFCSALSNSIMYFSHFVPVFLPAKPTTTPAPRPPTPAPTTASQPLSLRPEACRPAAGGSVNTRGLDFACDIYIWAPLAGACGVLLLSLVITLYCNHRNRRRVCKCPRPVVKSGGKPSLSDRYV
Assay: flow cytometry, cyno CD8+ T cells

I have this binder here, P283FR9P1366_C2 (designed binder, FN3 domain) LPAPKNLVVSRVTEDSARLSWTAPDAAFDSFKISYPEWPPEGEAIVLTVPGSERSYDLTGLKPGTEYAVFIWCVKGGEHSWPLSAIFTT , and I need its recorded Cyno T-cell Binding 0.2 uM (MFI).
19300 MFI

Any idea what Cyno T-cell Binding 0.2 uM (MFI) was measured for P283DR9P1364_E9 (designed binder, FN3 domain) LPAPKNLVVSRVTEDSARLSWTAPDAAFDSFDIAYPEWPTKGEAIVLTVPGSERSYDLTGLKPGTEYFVVINGVKGGWRSFPLSAIFTT ?
2100 MFI

Give the measured Cyno T-cell Binding 0.2 uM (MFI) of P283GR7P1367_E5 (designed binder, FN3 domain) LPAPKNLVVSRVTEDSARLSWTAPDAAFDSFEIWYHEYHPRGEAIVLTVPGSERSYDLTGLKPGTEYDVVISGVKGGHWSYPLSAIFTT .
533 MFI

Need Cyno T-cell Binding 0.2 uM (MFI) of P283FR9P1366_D8 (designed binder, FN3 domain) LPAPKNLVVSRVTEDSARLSWTAPDAAFDSFEIAYPEIPIAGEAIVLTVPGSERSYDLTGLKPGTEYFVIIYGVKGGDWSDPLSAIFTT , thanks.
2300 MFI

Name the recorded Cyno T-cell Binding 0.2 uM (MFI) for P283DR9P1364_A7 (designed binder, FN3 domain) LPAPKNLVVSRVTEDSARLSWTAPDAAFDSFRIAYPEWPVRGDAIVLTVPGSERSYDLTGLKPGTEYWVIIQGVKGGTDSFPLSAIFTT .
2640 MFI

// query Cyno T-cell Binding 0.2 uM (MFI) value for entry P283ER9P1365_H3 (designed binder, FN3 domain) LPAPKNLVVSRVTEDSARLSWTAPDAAFDSFYIPYRESEFRGEAIALPVPGSERSYDLTGLKPGTKYRVIIIGVKGGEFSQPLSAIFTT
436 MFI

Given the entry P283ER9P1365_C1 (designed binder, FN3 domain) LPAPKNLVVSRVTEDSARLSWTAPDAAFDSFYIPYWESEVYGEAIALPVTGSERSYDLTGLKPGTEYQVSIIGVKGGVYSQPLAAIFTT , report its measured Cyno T-cell Binding 0.2 uM (MFI).
1880 MFI

Query: Cyno T-cell Binding 0.2 uM (MFI); subject: P283HR7P1368_D4 (designed binder, FN3 domain) LPAPKNLVVSRVTEDSARLSWTAPDAAFDSFAIWCVEPIPEGEAIPLFVPGSERSYDLTGLKPGTEYRVGIRGVKGGTFSSPLAAPFTT
23500 MFI

Data request, read-out Cyno T-cell Binding 0.2 uM (MFI), for P283ER9P1365_F4 (designed binder, FN3 domain) LPAPKNLVVSRVTEDSARLSWTAPDAAFDSFYIPYRESEFRGEAIALPVPGSERSYDLTGLKPGTKYSVIIIGVKGGEFSQPLGAIFTT
2040 MFI
